Origin of values: the supplement of paper PMC11061612

# System: NCI-H209 (Small Cell Lung Carcinoma)
# experimental protocol: combination Emax (second highest fraction inhibited in the dose matrix, 72 h); higher = more inhibition; extreme values may be limits of the assay
Each entry gets not met if its combination Emax stays under 0.9, and met if its combination Emax is 0.9 or above.

compound	group
Cc1cc2ncnn2cc1Nc1ncc2c(n1)n(C1CCOCC1)c(=O)n2C [AZD7648] + C=CCn1c(=O)c2cnc(Nc3ccc(N4CCN(C)CC4)cc3)nc2n1-c1cccc(C(C)(C)O)n1 [AZD1775] (first compound max 10 µM, partner max 1 µM)	not met
CC1(C)CCC(CN2CCN(c3ccc(C(=O)NS(=O)(=O)c4ccc(NCC5CCOCC5)c([N+](=O)[O-])c4)c(Oc4cnc5[nH]ccc5c4)c3)CC2)=C(c2ccc(Cl)cc2)C1 [Venetoclax] + CCN(CCO)CCCOc1ccc2c(Nc3cc(CC(=O)Nc4cccc(F)c4)[nH]n3)ncnc2c1 [AZD2811] (first compound max 1 µM, 7x7, partner max 1 µM)	met
CN(CCO)CC[C@H](CSc1ccccc1)Nc1ccc(S(=O)(=O)NC(=O)c2ccc(N3CCC([C@@H](O)c4ccccc4-c4ccc(Cl)cc4)CC3)cc2)cc1S(=O)(=O)C(F)(F)F [AZD4320] + C[C@@H]1COCCN1C2=NC(=NC(=C2)C3(CC3)[S@](=N)(=O)C)C4=C5C=CNC5=NC=C4 [AZD6738] (first compound max 1 µM, 7x7, partner max 10 µM)	met
CC1(C)CCC(CN2CCN(c3ccc(C(=O)NS(=O)(=O)c4ccc(NCC5CCOCC5)c([N+](=O)[O-])c4)c(Oc4cnc5[nH]ccc5c4)c3)CC2)=C(c2ccc(Cl)cc2)C1 [Venetoclax] + C[C@@H](Nc1cc(F)cc(F)c1)c1cc(C(=O)N(C)C)cc2c(=O)cc(N3CCOCC3)oc12 [AZD8186] (first compound max 1 µM, 7x7, partner max 3 µM)	not met

Prompt line: Reported combination Emax reaches at least 0.9 for CN(CCO)CC[C@H](CSc1ccccc1)Nc1ccc(S(=O)(=O)NC(=O)c2ccc(N3CCC([C@@H](O)c4ccccc4-c4ccc(Cl)cc4)CC3)cc2)cc1S(=O)(=O)C(F)(F)F [AZD4320] + C1CN(CCC1(C(=O)N[C@@H](CCO)C2=CC=C(C=C2)Cl)N)C3=NC=NC4=C3C=CN4 [Capivasertib] (first compound max 1 µM, 7x7, partner max 3 µM) ?
Response line: met
